Measured melting point, listed per entry for reference.

Some compounds with known melting point results, for comparison:
{"Compound": "CC(O)(C#Cc1ccc(C(=O)c2ccccc2)cc1)C(F)(F)F (stereo not given)", "Result": "94.5 to 96 °C"}
{"Compound": "Cc1ccccc1-c1c(C(=O)N(C)Cc2cc(C(F)(F)F)cc(C(F)(F)F)c2)c(=O)oc2ccccc12", "Result": "130 to 131 °C"}

# melting point of `O=C(O)CSc1nc(=O)[nH]cc1F` = 255 °C

---

The following compounds are shown together with reported melting point values.

{"Compound": "CCCC(=O)c1cnc2c(N)cccc2c1Nc1ccccc1C", "Result": "108 to 110 °C"}
{"Compound": "N[C@@]1(C(=O)O)C[C@H](NC(=O)Nc2cccc(F)c2)[C@H]2[C@H](C(=O)O)[C@H]21 (relative stereo)", "Result": "> 250 °C"}
{"Compound": "O=C(Nc1cccc2c(Cn3ccnc3)ccnc12)c1c(Cl)cccc1Cl", "Result": "> 250 °C"}

What the record says about Cc1ccc(S(=O)(=O)N2CCCC2c2ccc(F)c(Cl)c2)cc1 (racemic) : melting point is 96 °C

get_value(item= `O=C1CC(c2cccc(-n3ccnc3)c2)=Nc2cc(N3CCOC3=O)c(-c3ccc(F)cc3)cc2N1` , readout=melting point) returns 230 °C

Field melting point (entry O=C(OC(c1ccccc1)c1ccccc1)C12CCC1CN(Cc1ccccc1)C2 (centres undefined) ) reads 96 to 99 °C

GET /value?item= `CS(=O)(=O)c1c(Sc2ccccc2)cccc1C(=O)O` &field=melting point returns 185 to 186 °C

GET /value?item= `CCN(CC)C(=O)Nc1ccc(-c2c[nH]c(=O)cn2)cc1` &field=melting point returns 154 to 155 °C

Summary for this compound, `COc1cc(OC)cc(S(=O)(=O)c2ccc(N)c(C)c2)c1` : melting point is 121 to 123 °C

---

Measure: melting point

{"Compound": "Cc1cccc(NCC2=NCCN2C(=O)Nc2ccccc2)c1C", "melting point": "137 °C"}
{"Compound": "Cc1cc2c(c3c1NC(=O)CC3)O[C@@H](CN)[C@H]2C (racemic)", "melting point": "> 300 °C"}
{"Compound": "C[Si](C)(CC[Si](C)(C)c1ccc(C(F)(F)F)cc1)c1ccc(C(F)(F)F)cc1", "melting point": "58 to 59 °C"}
{"Compound": "COC(=O)Cc1ccc[nH]c1=O", "melting point": "183 to 184 °C"}

// recorded melting point for `CCCc1c(OCc2ccccc2)ccc2c(=O)cc(CO)[nH]c12` : 197 to 199 °C

---

Overview of recorded melting point for various compounds

# count of solved cases: 8
{"Compound": "O=C(CCCN1CCOCC1)c1ccc2c(c1)Cc1cc(C(=O)CCCN3CCOCC3)ccc1O2", "melting point": "110 to 112 °C"}
{"Compound": "COc1ccc(-c2nc(-c3ccc(OC)cc3)nc(-c3ccccc3O)n2)cc1", "melting point": "205 to 206 °C"}
{"Compound": "CCC(N)C1CCN(c2c(F)cc3c(=O)c(C(=O)O)cn(C4CC4)c3c2F)C1 (centres undefined)", "melting point": "177 to 179 °C"}
{"Compound": "Cc1cc(Br)c2c(c1)C=C(C(=O)O)C(C(F)(F)F)O2 (centres undefined)", "melting point": "237 to 238 °C"}
{"Compound": "CC(C)c1ccc(N(Cc2ccc(N(C)C)cc2)C(=O)C2CCOc3ccccc32)cc1 (centres undefined)", "melting point": "110 to 112 °C"}
{"Compound": "CCCCCCCCC1C=CC(CCc2ccc(C(=O)O)o2)=C2N=C3CCCCC3=C21 (centres undefined)", "melting point": "110 to 111 °C"}
{"Compound": "Cc1nnc(-c2ccc3occ(-c4ccc(SCc5ccccc5C#N)cc4)c3c2)o1", "melting point": "141 to 142 °C"}
{"Compound": "CCc1cc(OC)c(O)c([N+](=O)[O-])c1", "melting point": "59 to 61 °C"}

Looking up `CS(=O)(=O)c1ccc(-c2[nH]c(CO)nc2-c2ccc(F)cc2)cc1` , I see its melting point listed as 115 to 117 °C

get_value(item= `CN1CCC=C(c2nc(NC=O)sc2Cl)C1` , readout=melting point) returns 193 °C

Notebook: CCC1(CCCN2CCc3sccc3C2)C(=O)Nc2ccccc21 (centres undefined) , melting point read as 130 to 132 °C

For this compound ( `CS(=O)(=O)c1ccc(-c2oc3ccccc3c(=S)c2-c2ccc(F)cc2)cc1` ), measured melting point is 203 to 205 °C

Lab book: melting point of `COc1cc(CN(C)c2ncc(C(=O)NO)cn2)cc(C(=O)Nc2ccc(Cl)c(-c3nc4cc(N(C)C)ccc4[nH]3)c2)c1` noted as 207 to 208 °C

Briefly, melting point measured for `CC(C)=NNC(=O)c1ccc(-c2ccc(Cl)cc2)o1` : 167 to 169 °C

Recorded melting point (compound COCOc1cc(Cl)ccc1-c1cc(-c2cccc(C(=O)NCC3CCCCN3C(=O)OC(C)(C)C)c2)c(C#N)c(NC(=O)c2ccco2)n1 (centres undefined) ): 133 to 136 °C

Looking up `CSc1ncc(S(N)(=O)=O)c(Nc2cccc(C)c2)n1` , I found its melting point recorded as 184 °C

Lab note: measured melting point of COc1ccc2c(c1)C(n1cc[nH]c1=S)CCC2 (centres undefined) was 142 to 143 °C

So, CC(NC(=O)NO)c1ccc2ccccc2c1 (centres undefined) ? Its melting point was 156 to 157 °C
